# ASSAY_OVERVIEW: melting temperature; melt of duplexes
# ASSAY_CONTEXT: sodium 0.0675 M; strand 1 µM
MEASUREMENT_KIND: Tm (°C)

In [3]: df
Out[3]:
                                   substance  measurement_kind  meas_value
 0  CGACGTGCCTTATGTGCTG+CAGCACATATCGCACGTCG ((((((((..(((((((((+)))))))))..))))))))                Tm        49.9
 1  CGACGTGCTACATGTGCTG+CAGCACATCTTGCACGTCG ((((((((.(.((((((((+)))))))).).))))))))                Tm        49.3
 2  CGACGTGCGATATGTGCTG+CAGCACATGCGGCACGTCG ((((((((...((((((((+))))))))...))))))))                Tm          50
 3  CGACGTGCCCAATGTGCTG+CAGCACATAGCGCACGTCG ((((((((.(.((((((((+)))))))).).))))))))                Tm        48.9
 4  CGACGTGCTCGATGTGCTG+CAGCACATACGGCACGTCG ((((((((...((((((((+))))))))...))))))))                Tm        50.5
 5  CGACGTGCTAAATGTGCTG+CAGCACATGGTGCACGTCG ((((((((...((((((((+))))))))...))))))))                Tm        49.9
 6  CGACGTGCTACATGTGCTG+CAGCACATGCTGCACGTCG ((((((((..(((((((((+)))))))))..))))))))                Tm        52.8
 7  CGACGTGCGTGATGTGCTG+CAGCACATCTAGCACGTCG ((((((((..(((((((((+)))))))))..))))))))                Tm        57.2
 8  CGACGTGCAGGATGTGCTG+CAGCACATCCGGCACGTCG ((((((((.((((((((((+)))))))))).))))))))                Tm        62.2
 9  CGACGTGCATTATGTGCTG+CAGCACATTAAGCACGTCG ((((((((.(.((((((((+)))))))).).))))))))                Tm        50.3
10  CGACGTGCGGAATGTGCTG+CAGCACATTCTGCACGTCG ((((((((.((((((((((+)))))))))).))))))))                Tm        61.1
11  CGACGTGCCCTATGTGCTG+CAGCACATCGCGCACGTCG ((((((((.(.((((((((+)))))))).).))))))))                Tm        48.1
12  CGACGTGCTTGATGTGCTG+CAGCACATGCCGCACGTCG ((((((((...((((((((+))))))))...))))))))                Tm        47.8
13  CGACGTGCAGTATGTGCTG+CAGCACATTGAGCACGTCG ((((((((...((((((((+))))))))...))))))))                Tm        49.1
